Just for reference, patent US5807981A is where these values come from.

Target: C-proteinase (Homo sapiens, UniProt P13497)
Sequence (P13497 121-986): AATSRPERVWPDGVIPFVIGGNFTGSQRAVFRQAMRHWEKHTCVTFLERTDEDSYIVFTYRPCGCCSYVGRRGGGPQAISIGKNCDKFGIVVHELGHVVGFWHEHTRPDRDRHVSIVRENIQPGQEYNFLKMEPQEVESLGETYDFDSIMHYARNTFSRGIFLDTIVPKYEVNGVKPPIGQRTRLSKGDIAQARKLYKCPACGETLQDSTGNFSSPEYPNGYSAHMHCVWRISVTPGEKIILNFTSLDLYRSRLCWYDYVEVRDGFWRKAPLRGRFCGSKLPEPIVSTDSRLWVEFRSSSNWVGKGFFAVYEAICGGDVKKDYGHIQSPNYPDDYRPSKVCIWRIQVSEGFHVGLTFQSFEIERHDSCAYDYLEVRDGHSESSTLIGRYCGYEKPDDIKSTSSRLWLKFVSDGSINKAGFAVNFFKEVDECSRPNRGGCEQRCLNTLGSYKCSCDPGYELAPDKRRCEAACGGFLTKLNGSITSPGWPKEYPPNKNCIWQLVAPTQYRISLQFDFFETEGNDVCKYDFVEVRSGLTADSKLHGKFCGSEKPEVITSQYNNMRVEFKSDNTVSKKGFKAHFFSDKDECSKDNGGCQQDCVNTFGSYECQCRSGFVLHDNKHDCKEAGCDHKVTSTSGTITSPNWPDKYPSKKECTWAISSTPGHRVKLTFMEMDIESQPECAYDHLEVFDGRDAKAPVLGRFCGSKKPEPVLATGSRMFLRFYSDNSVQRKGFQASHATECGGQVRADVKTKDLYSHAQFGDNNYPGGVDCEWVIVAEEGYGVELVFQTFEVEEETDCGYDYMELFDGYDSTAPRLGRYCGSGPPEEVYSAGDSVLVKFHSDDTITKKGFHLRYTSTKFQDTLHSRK
Assay: Cleavage of synthetic procollagen cleavage-site peptides by active C-proteinase
Format: biochemical
Conditions: Table 1; cleavability of peptides resembling the C-proteinase cleavage site of procollagen
Residues, ends and D or L forms follow the SMILES beside them.
quantity: Cleavability

// solved cases for Cleavability follow
{"molecule": "CC(=O)N1CCC[C@H]1C(=O)N[C@@H](Cc1ccc(O)cc1)C(=O)N[C@@H](Cc1ccc(O)cc1)C(=O)NCC(=O)N[C@@H](CC(=O)O)C(N)=O [SEQ ID NO:10, Ac-PYYG-D-NH2] (Ac-PYYGD-NH2)", "Cleavability": "none"}
{"molecule": "CSCC[C@H](NC(=O)[C@@H]1CCCN1C(=O)[C@H](CCC(=O)O)NC(=O)[C@H](CC(=O)O)NC(=O)CNC(=O)[C@H](Cc1ccc(O)cc1)NC(=O)[C@H](Cc1ccc(O)cc1)NC(=O)[C@@H]1CCCN1C(C)=O)C(N)=O [SEQ ID NO:6, Ac-PYYG-DEPM-NH2] (Ac-PYYGDEPM-NH2)", "Cleavability": "excellent"}
{"molecule": "CC(=O)N1CCC[C@H]1C(=O)N[C@@H](Cc1ccc(O)cc1)C(=O)N[C@@H](Cc1ccc(O)cc1)C(=O)NCC(=O)N[C@@H](CC(=O)O)C(=O)N[C@@H](CCC(=O)O)C(=O)N1CCC[C@H]1C(N)=O [SEQ ID NO:8, Ac-PYYG-DEP-NH2] (Ac-PYYGDEP-NH2)", "Cleavability": "excellent"}
{"molecule": "CC(=O)N[C@@H](Cc1ccc(O)cc1)C(=O)N[C@@H](Cc1ccc(O)cc1)C(=O)N[C@@H](CCCNC(=N)N)C(=O)N[C@@H](C)C(=O)N[C@@H](CC(=O)O)C(=O)N[C@@H](CC(=O)O)C(=O)N[C@@H](C)C(=O)N[C@@H](CC(N)=O)C(N)=O [SEQ ID NO:3, Ac-YYRA-DDAN-NH2] (Ac-YYRADDAN-NH2)", "Cleavability": "slight"}
{"molecule": "CSCC[C@H](NC(=O)[C@@H]1CCCN1C(=O)[C@H](CCC(=O)O)NC(=O)[C@H](CC(=O)O)NC(=O)CNC(=O)[C@H](Cc1ccc(O)cc1)NC(C)=O)C(N)=O [SEQ ID NO:12, Ac-YG-DEPM-NH2] (Ac-YGDEPM-NH2)", "Cleavability": "none"}

Look up Cleavability: CC(=O)N[C@@H](Cc1ccccc1)C(=O)N[C@@H](Cc1ccc(O)cc1)C(=O)N[C@@H](CCCNC(=N)N)C(=O)N[C@@H](C)C(=O)N[C@@H](CC(=O)O)C(=O)N[C@@H](CCC(N)=O)C(=O)N1CCC[C@H]1C(=O)N[C@@H](CCCNC(=N)N)C(N)=O [SEQ ID NO:4, Ac-FYRA-DQPR-NH2] (Ac-FYRADQPR-NH2)
slight

Look up Cleavability: CSCC[C@H](NC(=O)[C@@H]1CCCN1C(=O)[C@H](CCC(=O)O)NC(=O)[C@H](CC(=O)O)NC(=O)CNC(=O)[C@H](Cc1ccc(O)cc1)NC(=O)[C@H](Cc1ccc(O)cc1)NC(C)=O)C(N)=O [SEQ ID NO:11, Ac-YYG-DEPM-NH2] (Ac-YYGDEPM-NH2)
excellent

###

Biological target: C-proteinase (Homo sapiens)
Assay: Cleavage of synthetic procollagen cleavage-site peptides by active C-proteinase
Format: biochemical
Details: Table 1; cleavability of peptides resembling the C-proteinase cleavage site of procollagen
Residues, ends and D or L forms follow the SMILES beside them.

{"compound": "CSCC[C@H](NC(=O)[C@@H]1CCCN1C(=O)[C@H](CCC(=O)O)NC(=O)[C@H](CC(=O)O)NC(=O)CNC(C)=O)C(N)=O [SEQ ID NO:13, Ac-G-DEPM-NH2] (Ac-GDEPM-NH2)", "Cleavability": "none"}
{"compound": "CC(=O)N1CCC[C@H]1C(=O)N[C@@H](Cc1ccc(O)cc1)C(=O)N[C@@H](Cc1ccc(O)cc1)C(=O)NCC(=O)N[C@@H](CC(=O)O)C(=O)N[C@@H](CCC(=O)O)C(N)=O [SEQ ID NO:9, Ac-PYYG-DE-NH2] (Ac-PYYGDE-NH2)", "Cleavability": "none"}

###

Biological target: C-proteinase (Homo sapiens, UniProt P13497)
Test: Cleavage of synthetic procollagen cleavage-site peptides by active C-proteinase
Assay type: biochemical
Details: truncated and extended peptides compared with original peptide SEQ ID NO:6
Residues, ends and D or L forms follow the SMILES beside them.
quantity: cleavability by C-proteinase

// solved cases for cleavability by C-proteinase follow
{"molecule": "CSCC[C@H](NC(=O)[C@@H]1CCCN1C(=O)[C@H](CCC(=O)O)NC(=O)[C@H](CC(=O)O)NC(=O)CNC(=O)[C@H](Cc1ccc(O)cc1)NC(C)=O)C(N)=O [SEQ ID NO:12, Ac-YG-DEPM-NH2] (Ac-YGDEPM-NH2)", "cleavability by C-proteinase": "non-cleavable"}
{"molecule": "CC(=O)N1CCC[C@H]1C(=O)N[C@@H](Cc1ccc(O)cc1)C(=O)N[C@@H](Cc1ccc(O)cc1)C(=O)NCC(=O)N[C@@H](CC(=O)O)C(=O)N[C@@H](CCC(=O)O)C(N)=O [SEQ ID NO:9, Ac-PYYG-DE-NH2] (Ac-PYYGDE-NH2)", "cleavability by C-proteinase": "non-cleavable"}
{"molecule": "CC(=O)N[C@@H](Cc1ccc(O)cc1)C(=O)N[C@@H](Cc1ccc(O)cc1)C(=O)N[C@@H](CCCNC(=N)N)C(=O)N[C@@H](C)C(=O)N[C@@H](CC(=O)O)C(=O)N[C@@H](CC(=O)O)C(=O)N[C@@H](C)C(=O)N[C@@H](CC(N)=O)C(N)=O [SEQ ID NO:3, Ac-YYRA-DDAN-NH2] (Ac-YYRADDAN-NH2)", "cleavability by C-proteinase": "cleaved by C-proteinase"}
{"molecule": "CC(=O)N[C@@H](Cc1ccccc1)C(=O)N[C@@H](Cc1ccc(O)cc1)C(=O)N[C@@H](CCCNC(=N)N)C(=O)N[C@@H](C)C(=O)N[C@@H](CC(=O)O)C(=O)N[C@@H](CCC(N)=O)C(=O)N1CCC[C@H]1C(=O)N[C@@H](CCCNC(=N)N)C(N)=O [SEQ ID NO:4, Ac-FYRA-DQPR-NH2] (Ac-FYRADQPR-NH2)", "cleavability by C-proteinase": "cleaved by C-proteinase"}
{"molecule": "CSCC[C@H](NC(=O)[C@@H]1CCCN1C(=O)[C@H](CCC(=O)O)NC(=O)[C@H](CC(=O)O)NC(=O)CNC(C)=O)C(N)=O [SEQ ID NO:13, Ac-G-DEPM-NH2] (Ac-GDEPM-NH2)", "cleavability by C-proteinase": "non-cleavable"}
{"molecule": "CSCC[C@H](NC(=O)[C@H](Cc1ccc(O)cc1)NC(C)=O)C(=O)N[C@@H](CCCNC(=N)N)C(=O)N[C@@H](C)C(=O)N[C@@H](CC(=O)O)C(=O)N[C@@H](CCC(N)=O)C(=O)N[C@@H](C)C(=O)N[C@@H](C)C(N)=O [SEQ ID NO:5, Ac-YMRA-DQAA-NH2] (Ac-YMRADQAA-NH2)", "cleavability by C-proteinase": "cleaved by C-proteinase"}

Next, consider the following molecule.
Look up cleavability by C-proteinase: CC(=O)N1CCC[C@H]1C(=O)N[C@@H](Cc1ccc(O)cc1)C(=O)N[C@@H](Cc1ccc(O)cc1)C(=O)NCC(=O)N[C@@H](CC(=O)O)C(N)=O [SEQ ID NO:10, Ac-PYYG-D-NH2] (Ac-PYYGD-NH2)
non-cleavable
